Value source: patent US20250059203A1

- Test system: U-87 (glioma)
- testDetails: MTT assay, U-87 cells
- Format: cell-based, human
- testContext: Homo sapiens, U-87 MG, U-87, 72 h
propertyLabel: IC50

{"columns": ["compound", "propertyLabel", "recordedValue"],
 "data": [
  ["COc1cccc2c1[C@H](SCC(N)=O)c1noc(=O)c3cc4c(c-2c13)OCO4 [Aristoloxazine C]", "IC50", "57.8 nM"]
]}

----------
- Test system: U-87 (glioma)
- testDetails: MTT assay, U-87 cells
- Format: cell-based, human
- testContext: U-87, 72 h

{"columns": ["compound", "targetOfAssay", "quantityUnit", "IC50"],
 "data": [
  ["O=c1[nH]cc(F)c(=O)[nH]1 [Compound 5-FU, 5-FU, reference compound]", "U-87 (glioma)", "µM", 9]
]}
